# systemUnderTest: human NMB receptor (BB1) (Homo sapiens)
# Construct: expressed in transfected cells; membranes prepared from the cells
# Sequence (P28336 whole entry): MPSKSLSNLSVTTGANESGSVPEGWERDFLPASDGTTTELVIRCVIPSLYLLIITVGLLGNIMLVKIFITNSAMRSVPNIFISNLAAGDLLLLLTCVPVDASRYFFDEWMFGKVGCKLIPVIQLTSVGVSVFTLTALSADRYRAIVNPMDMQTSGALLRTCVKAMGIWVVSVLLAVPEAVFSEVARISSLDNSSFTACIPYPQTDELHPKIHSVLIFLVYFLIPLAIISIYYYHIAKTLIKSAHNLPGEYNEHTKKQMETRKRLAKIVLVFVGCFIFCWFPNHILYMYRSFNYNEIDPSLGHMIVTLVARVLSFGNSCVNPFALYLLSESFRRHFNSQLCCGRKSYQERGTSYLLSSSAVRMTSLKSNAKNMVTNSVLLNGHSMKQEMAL
# procedureSummary: BB1 binding assay ([125I][Tyr4]bombesin displacement, CHO-K1 membranes)
measuredParameter: IC50 (nM)

I = C[C@@](Cc1c[nH]c2ccccc12)(NS(=O)(=O)c1ccc([N+](=O)[O-])cc1)C(=O)NCC1(c2ccccn2)CCCCC1 [Example 123]
II = Cc1cc(S(=O)(=O)N[C@@](C)(Cc2c[nH]c3ccccc23)C(=O)NCC2(c3ccccn3)CCCCC2)c(Cl)cc1Cl [Example 165]
Field: lower IC50 | Options: I / II In your reply, give the label of the chosen option. II
(II: 172 nM, I: 515 nM)
